From: the supplement of paper PMC10681739

target of assay: RUNX1 (UniProt Q01196)
Sequence (Q01196 whole entry): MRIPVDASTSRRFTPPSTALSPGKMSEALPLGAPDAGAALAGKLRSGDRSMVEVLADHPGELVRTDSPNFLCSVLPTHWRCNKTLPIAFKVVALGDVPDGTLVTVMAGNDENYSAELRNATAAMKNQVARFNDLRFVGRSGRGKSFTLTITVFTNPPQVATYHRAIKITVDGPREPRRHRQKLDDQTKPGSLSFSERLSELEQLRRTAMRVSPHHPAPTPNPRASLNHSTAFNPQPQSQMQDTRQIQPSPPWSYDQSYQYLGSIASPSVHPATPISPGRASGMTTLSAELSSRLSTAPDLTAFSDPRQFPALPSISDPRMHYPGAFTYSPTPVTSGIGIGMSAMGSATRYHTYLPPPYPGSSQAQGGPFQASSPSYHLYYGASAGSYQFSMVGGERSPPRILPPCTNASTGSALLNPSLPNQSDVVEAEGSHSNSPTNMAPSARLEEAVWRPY
assay: RUNX1 binding intensity (PBM fluorescence) in presence of ETS1, normalised to RUNX1-only experiment (arbitrary fluorescence units); higher = stronger binding
study conditions: RUNX1 concentration 2 nM; ETS1 concentration 25 nM
Catalogue of RUNX1 binding intensity readings, one per entry.

[
  {
    "construct sequence": "CTCTTCCGCTCAGTCATCCTCAGAGGTGGTAAGACT",
    "RUNX1 binding intensity": 2080
  },
  {
    "construct sequence": "CCCGCGACACAAGGCGGATGTGGTACCCTCACTTGT",
    "RUNX1 binding intensity": 1200
  },
  {
    "construct sequence": "GTCAGGGGAACAGGATGTGGGTGGGAGCCAGCCCCA",
    "RUNX1 binding intensity": 2540
  },
  {
    "construct sequence": "CTCCACCGGATGCAGCAATGAAGGCCGCAGGAATGG",
    "RUNX1 binding intensity": 1130
  }
]

The value of RUNX1 binding intensity measured for the sequence AGAGGCTTCCTGAGGAACTGGTGTGGTCAGGGGAGC turned out to be 1010

The reported value for TGCCCTGACTTCCTGGTCCTGTGGTCAAGGATGGGG in terms of RUNX1 binding intensity is 2000

* * *

Form field: RUNX1 binding intensity (one value per entry).
target of assay: RUNX1 (UniProt Q01196)
assay: RUNX1 binding intensity (PBM fluorescence), RUNX1 alone (arbitrary fluorescence units); higher = stronger binding
study conditions: RUNX1 concentration 2 nM; ETS1 concentration 0 nM
Note: the reply should be a number with no unit written.

[
  {
    "construct sequence": "GTGCTCCTCGCTTCCTCCGCGGTCTTCCGAGCGGTC",
    "target of assay": "RUNX1 (UniProt Q01196)",
    "RUNX1 binding intensity": 1150
  }
]

The reported value for TTGCCATTCCAGGAAATGAGCTTACCACATTGACTG in terms of RUNX1 binding intensity is 798

RUNX1 binding intensity measured on AGTGTCCGCCGCTTCCTGGTTGCGGGTCAGCGCCCA = 824

Entry AACATCCGGTTCCCGGTTCTGCCCCCTACCGCAGCT ; RUNX1 binding intensity = 917

The sequence listed as CTTCAAAGTCAGGAAACCGTTAAACCACACTGCATC has a reported RUNX1 binding intensity of 1100

For this sequence ( CTTAGCGGAAGAGGCGTGACCCAGGCGTACCGCAGG ), measured RUNX1 binding intensity is 804

RUNX1 binding intensity in this record for GGCCGACGGGAAGTGTAGTCCGGCCTGCGGTCCGGG : 704

GET /value?item= CTGAAACAGGAAACAGACAAAGCCACAAGGTTCGCA &field=RUNX1 binding intensity returns 746

* * *

Entries and their TF binding intensity
target of assay: ETS1 (UniProt P14921)
Sequence: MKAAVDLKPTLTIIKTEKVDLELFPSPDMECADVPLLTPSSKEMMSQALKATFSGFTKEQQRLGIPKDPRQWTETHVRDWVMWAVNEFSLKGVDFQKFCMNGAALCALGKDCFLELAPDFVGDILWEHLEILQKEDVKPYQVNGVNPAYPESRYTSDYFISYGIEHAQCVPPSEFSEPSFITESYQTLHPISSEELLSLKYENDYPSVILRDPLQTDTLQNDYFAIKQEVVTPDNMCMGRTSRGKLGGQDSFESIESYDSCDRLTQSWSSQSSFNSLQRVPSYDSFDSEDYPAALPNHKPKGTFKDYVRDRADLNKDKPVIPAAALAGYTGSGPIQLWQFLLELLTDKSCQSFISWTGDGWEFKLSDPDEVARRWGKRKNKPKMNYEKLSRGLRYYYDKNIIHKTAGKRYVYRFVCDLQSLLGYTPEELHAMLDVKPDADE
assay: TF binding intensity (PBM fluorescence), negative control probe (arbitrary fluorescence units); higher = stronger binding
// print number alone

Consider the reported TF binding intensity for these sequences:
[
  {
    "construct sequence": "ACCTGGCTGTCTGGCTCCTTACTTTCCACCATTTTC (protein concentration 10 nM)",
    "TF binding intensity": 132
  },
  {
    "construct sequence": "AAAGGCAGATCTCCAAATCTCCAGGCCTGCTCGTTG (protein concentration 10 nM)",
    "TF binding intensity": 96.1
  },
  {
    "construct sequence": "AGCAGAGTGTGATGAATGGATTCATATACGGTCTGA (protein concentration 10 nM)",
    "TF binding intensity": 103
  }
]

get_value(item= GCCCTCTGCGGGGCAACAGCACGAGGCATTACCCCT (protein concentration 10 nM) , readout=TF binding intensity) returns 107

The recorded TF binding intensity for AAGTTAATGAGATATTGTGGTTGTTTGTGTTTGGTT (protein concentration 1 nM) is 477

* * *

Each entry below carries its reported ETS1 binding intensity.
target of assay: ETS1 (UniProt P14921)
Sequence: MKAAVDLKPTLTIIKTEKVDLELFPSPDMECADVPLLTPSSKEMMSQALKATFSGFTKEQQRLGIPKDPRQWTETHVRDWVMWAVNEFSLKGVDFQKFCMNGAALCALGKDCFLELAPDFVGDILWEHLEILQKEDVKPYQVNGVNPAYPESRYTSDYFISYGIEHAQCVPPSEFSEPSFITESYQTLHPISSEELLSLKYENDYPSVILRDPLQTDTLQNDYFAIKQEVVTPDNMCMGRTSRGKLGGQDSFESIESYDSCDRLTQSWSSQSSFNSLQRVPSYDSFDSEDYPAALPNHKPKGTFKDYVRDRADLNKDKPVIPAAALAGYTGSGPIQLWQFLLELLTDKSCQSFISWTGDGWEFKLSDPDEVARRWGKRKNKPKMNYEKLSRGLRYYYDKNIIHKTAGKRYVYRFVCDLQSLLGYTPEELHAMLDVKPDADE
assay: ETS1 binding intensity (PBM fluorescence), ETS1 alone (arbitrary fluorescence units); higher = stronger binding
study conditions: ETS1 concentration 1 nM; RUNX1 concentration 0 nM

Example entries and their recorded answers appear below.
[
  {
    "construct sequence": "AGGCAGCACAGGAAGTTATAACCACATGTACACTTG",
    "assay metric": "ETS1 binding intensity",
    "measured result": 3790
  },
  {
    "construct sequence": "TTGTGCTTCCTGCTCATGAGATTGCTAGCGGTTACT",
    "assay metric": "ETS1 binding intensity",
    "measured result": 491
  },
  {
    "construct sequence": "AGAGCAACAGGATGCAAATAACCACAAGCAAGAATA",
    "assay metric": "ETS1 binding intensity",
    "measured result": 920
  }
]

response.value for AGCAGGTATACCACTTCCTGTGGTTATCATTTGAGG (field: ETS1 binding intensity) = 2330

// ETS1 binding intensity lookup, sequence = TTGACCCGGACGTGGACAAAAGACCGCAAAGGACGC , result: 806

Entry under test: ACTCGGGAATGTCCGGTCGTGGTAAGCAGGGTGGCA . Its ETS1 binding intensity was 516

Query AGGGTTACAATTTCCGTAAACCACAGAAGCAGCAGA yields ETS1 binding intensity of 550

Record CCAACTTTTGAGGGATGTGGTTACGTTTTCTAGATC . Reported ETS1 binding intensity: 366

Lookup result for GGCAGGAGCTTCCGGCTCAGCCCTGCGGCCTGTGCC ; measured ETS1 binding intensity: 498

Field ETS1 binding intensity (entry CAAGCCAACATCCTGACAGTTTAGAAACCACAGGAG ) reads 464

Consider CGGGACACAGGAAGCCGTTGTGGGGCCCCGGGGCCA . Its measured ETS1 binding intensity is 1960

Lab note: GGCCCTTCTGGGGCAGGATGTGGTGCCTGCCAAAGG gave ETS1 binding intensity of 4650

Record summary for GTGGCTATGGGAAGTGGGGTGCGGTTTCTGCCGGGG : reported ETS1 binding intensity = 554

* * *

Measured RUNX1 binding intensity values are reported for all entries that follow.
target of assay: RUNX1 (UniProt Q01196)
assay: RUNX1 binding intensity (PBM fluorescence) in presence of ETS1, normalised to RUNX1-only experiment (arbitrary fluorescence units); higher = stronger binding
study conditions: RUNX1 concentration 2 nM; ETS1 concentration 25 nM
Respond with the number and no other words.

[
  {
    "construct sequence": "AACTTCCTCCGCGCGGGGCCACTGCTACCACAAAGG",
    "RUNX1 binding intensity": 2540
  },
  {
    "construct sequence": "TACTACTTACCAGCAGGATGTGGTCCCTGCCCACTG",
    "RUNX1 binding intensity": 1250
  }
]

Readout RUNX1 binding intensity for ATACTGAGTCATTTCCTGTGGTGTTATTGTGTTGTA , test system RUNX1 (UniProt Q01196), was 1570

Param item: AGGACCTAACACTCAGGAAGTGGTCAACCTTGCTGC ; param system: RUNX1 (UniProt Q01196); output RUNX1 binding intensity: 1420

Test item TCCAGCTCCACAGGATGTGGTGAGTGAAGCAGCAAG ; RUNX1 (UniProt Q01196); reported RUNX1 binding intensity was 2380

CATGCGTCACCTTCCTGTGTGGTCAGCAGTGCTTGC on RUNX1 (UniProt Q01196) gives RUNX1 binding intensity = 1420

Short answer on RUNX1 (UniProt Q01196) for CGCCTGCCCCACTTCCGCCCGGACCCGCAGCCCCTA , RUNX1 binding intensity: 3610
